Ref: patent US11685734B2

Molecular target: cellular ATM activity (Homo sapiens (Human))
Experiment: Inhibition of cellular ATM activity: etoposide-stimulated KAP1 phosphorylation in U20S cells
Conditions: 100 μM etoposide, 60 min, read-out: ATM CELL IC50
measured_quantity: IC50 (nM)

[[record]]
compound = "O=c1cc(N2CCOCC2)nc(N2CCCCC[C@@H]2Cc2ccccc2Cl)[nH]1"
endpoint_value = 797


1. C[C@@H]1CN(c2cc(=O)[nH]c(N3CC[C@@H](C)[C@@H]3Cc3ccccc3)n2)CCO1
2. Cc1ccc(C[C@H]2CCCN2c2nc(N3CCOCC3)cc(=O)[nH]2)cc1
3. O=c1cc(N2CCOCC2)nc(N2CCCC[C@@H]2Cc2ccccc2)[nH]1
4. COC[C@@H](C)Oc1ccc(C[C@H]2CCCN2c2cc(N3CCOCC3)cc(=O)[nH]2)cc1
Prompt: // ranking: key=IC50, reverse=True Please respond with the labels ordered as the question requires.
Response: 4, 2, 1, 3

====

Molecular target: cellular ATM activity (Homo sapiens (Human))
Experiment: Inhibition of cellular ATM activity: etoposide-stimulated KAP1 phosphorylation in U20S cells
Conditions: 100 μM etoposide, 60 min, read-out: ATM CELL IC50
measured_quantity: IC50 (nM)

[[record]]
compound = "CC1(C)CCCN(c2nc(N3CCOCC3)cc(=O)[nH]2)[C@@H](Cc2ccccc2)C1"
target_of_assay = "cellular ATM activity (Homo sapiens (Human))"
endpoint_value = 9760


I. COCCOc1ccc(C[C@H]2CCCCCN2c2nc(N3CCO[C@H](C)C3)cc(=O)[nH]2)cc1
II. COc1ccccc1C[C@H]1CC(F)(F)CCCN1c1cc(N2CCOCC2)cc(=O)[nH]1
III. CO[C@@H]1CCN(c2nc(N3CCOCC3)cc(=O)[nH]2)[C@H]1Cc1ccccc1
IV. C[C@@H]1CN(c2cc(=O)[nH]c(N3CCCCC[C@@H]3Cc3ccccc3)n2)CCO1
V. Cn1c(N2CCC[C@@H]2Cc2ccccc2)cc(N2CCOCC2)cc1=O
Prompt: Put the items in order so that reported IC50 rises from first to last. Please respond with the labels ordered as the question requires.
Response: I, III, IV, II, V
(I: 256 nM, III: 411 nM, IV: 818 nM, II: 1250 nM, V: 1900 nM)

a. O=c1cc(N2CCOCC2)cc(N2CCCCC[C@@H]2Cc2ccccc2F)[nH]1
b. C[C@@H]1CN(c2cc(=O)[nH]c(N3CCCCC[C@@H]3Cc3cccc(F)c3F)n2)CCO1
Prompt: Of a and b , which one carries the higher reported IC50? Bench note: the answer is the label of the chosen record.
Response: b

I. O=c1cc(N2CCOCC2)nc(N2CCCC(F)(F)C[C@@H]2Cc2ccccc2)[nH]1
II. COc1cccc(C[C@H]2CCCCCN2c2nc(N3CCOCC3)cc(=O)[nH]2)c1
III. O=c1cc(N2CCOCC2)cc(N2CCCCC[C@@H]2Cc2ccsc2)[nH]1
IV. O=c1cc(C2=CCOCC2)cc(N2CCCCC[C@@H]2Cc2ccccc2)[nH]1
V. COc1cccc(C[C@H]2CCCN2c2cc(N3CCOCC3)cc(=O)[nH]2)c1
Prompt: Put the items in order so that reported IC50 rises from first to last. Please respond with the labels ordered as the question requires.
Response: I, II, III, IV, V
(I: 273 nM, II: 427 nM, III: 933 nM, IV: 1540 nM, V: 2680 nM)

1. O=c1cc(N2CCOCC2)cc(N2CCCC(F)(F)C[C@@H]2Cc2ccccc2)[nH]1
2. COc1ccccc1CC1CC(F)(F)CCCN1c1nc(N2CCOCC2)cc(=O)[nH]1 (stereo not drawn)
3. C[C@@H]1CN(c2cc(=O)[nH]c(N3CCCCC[C@@H]3Cc3cccs3)n2)CCO1
Prompt: Put the items in order so that reported IC50 rises from first to last. Please respond with the labels ordered as the question requires.
Response: 1, 3, 2
(1: 498 nM, 3: 1020 nM, 2: 2020 nM)

====

Target: Recombinant, full length human FLAG-tagged ATM (Homo sapiens (Human), UniProt Q13315)
Sequence (Q13315 whole entry): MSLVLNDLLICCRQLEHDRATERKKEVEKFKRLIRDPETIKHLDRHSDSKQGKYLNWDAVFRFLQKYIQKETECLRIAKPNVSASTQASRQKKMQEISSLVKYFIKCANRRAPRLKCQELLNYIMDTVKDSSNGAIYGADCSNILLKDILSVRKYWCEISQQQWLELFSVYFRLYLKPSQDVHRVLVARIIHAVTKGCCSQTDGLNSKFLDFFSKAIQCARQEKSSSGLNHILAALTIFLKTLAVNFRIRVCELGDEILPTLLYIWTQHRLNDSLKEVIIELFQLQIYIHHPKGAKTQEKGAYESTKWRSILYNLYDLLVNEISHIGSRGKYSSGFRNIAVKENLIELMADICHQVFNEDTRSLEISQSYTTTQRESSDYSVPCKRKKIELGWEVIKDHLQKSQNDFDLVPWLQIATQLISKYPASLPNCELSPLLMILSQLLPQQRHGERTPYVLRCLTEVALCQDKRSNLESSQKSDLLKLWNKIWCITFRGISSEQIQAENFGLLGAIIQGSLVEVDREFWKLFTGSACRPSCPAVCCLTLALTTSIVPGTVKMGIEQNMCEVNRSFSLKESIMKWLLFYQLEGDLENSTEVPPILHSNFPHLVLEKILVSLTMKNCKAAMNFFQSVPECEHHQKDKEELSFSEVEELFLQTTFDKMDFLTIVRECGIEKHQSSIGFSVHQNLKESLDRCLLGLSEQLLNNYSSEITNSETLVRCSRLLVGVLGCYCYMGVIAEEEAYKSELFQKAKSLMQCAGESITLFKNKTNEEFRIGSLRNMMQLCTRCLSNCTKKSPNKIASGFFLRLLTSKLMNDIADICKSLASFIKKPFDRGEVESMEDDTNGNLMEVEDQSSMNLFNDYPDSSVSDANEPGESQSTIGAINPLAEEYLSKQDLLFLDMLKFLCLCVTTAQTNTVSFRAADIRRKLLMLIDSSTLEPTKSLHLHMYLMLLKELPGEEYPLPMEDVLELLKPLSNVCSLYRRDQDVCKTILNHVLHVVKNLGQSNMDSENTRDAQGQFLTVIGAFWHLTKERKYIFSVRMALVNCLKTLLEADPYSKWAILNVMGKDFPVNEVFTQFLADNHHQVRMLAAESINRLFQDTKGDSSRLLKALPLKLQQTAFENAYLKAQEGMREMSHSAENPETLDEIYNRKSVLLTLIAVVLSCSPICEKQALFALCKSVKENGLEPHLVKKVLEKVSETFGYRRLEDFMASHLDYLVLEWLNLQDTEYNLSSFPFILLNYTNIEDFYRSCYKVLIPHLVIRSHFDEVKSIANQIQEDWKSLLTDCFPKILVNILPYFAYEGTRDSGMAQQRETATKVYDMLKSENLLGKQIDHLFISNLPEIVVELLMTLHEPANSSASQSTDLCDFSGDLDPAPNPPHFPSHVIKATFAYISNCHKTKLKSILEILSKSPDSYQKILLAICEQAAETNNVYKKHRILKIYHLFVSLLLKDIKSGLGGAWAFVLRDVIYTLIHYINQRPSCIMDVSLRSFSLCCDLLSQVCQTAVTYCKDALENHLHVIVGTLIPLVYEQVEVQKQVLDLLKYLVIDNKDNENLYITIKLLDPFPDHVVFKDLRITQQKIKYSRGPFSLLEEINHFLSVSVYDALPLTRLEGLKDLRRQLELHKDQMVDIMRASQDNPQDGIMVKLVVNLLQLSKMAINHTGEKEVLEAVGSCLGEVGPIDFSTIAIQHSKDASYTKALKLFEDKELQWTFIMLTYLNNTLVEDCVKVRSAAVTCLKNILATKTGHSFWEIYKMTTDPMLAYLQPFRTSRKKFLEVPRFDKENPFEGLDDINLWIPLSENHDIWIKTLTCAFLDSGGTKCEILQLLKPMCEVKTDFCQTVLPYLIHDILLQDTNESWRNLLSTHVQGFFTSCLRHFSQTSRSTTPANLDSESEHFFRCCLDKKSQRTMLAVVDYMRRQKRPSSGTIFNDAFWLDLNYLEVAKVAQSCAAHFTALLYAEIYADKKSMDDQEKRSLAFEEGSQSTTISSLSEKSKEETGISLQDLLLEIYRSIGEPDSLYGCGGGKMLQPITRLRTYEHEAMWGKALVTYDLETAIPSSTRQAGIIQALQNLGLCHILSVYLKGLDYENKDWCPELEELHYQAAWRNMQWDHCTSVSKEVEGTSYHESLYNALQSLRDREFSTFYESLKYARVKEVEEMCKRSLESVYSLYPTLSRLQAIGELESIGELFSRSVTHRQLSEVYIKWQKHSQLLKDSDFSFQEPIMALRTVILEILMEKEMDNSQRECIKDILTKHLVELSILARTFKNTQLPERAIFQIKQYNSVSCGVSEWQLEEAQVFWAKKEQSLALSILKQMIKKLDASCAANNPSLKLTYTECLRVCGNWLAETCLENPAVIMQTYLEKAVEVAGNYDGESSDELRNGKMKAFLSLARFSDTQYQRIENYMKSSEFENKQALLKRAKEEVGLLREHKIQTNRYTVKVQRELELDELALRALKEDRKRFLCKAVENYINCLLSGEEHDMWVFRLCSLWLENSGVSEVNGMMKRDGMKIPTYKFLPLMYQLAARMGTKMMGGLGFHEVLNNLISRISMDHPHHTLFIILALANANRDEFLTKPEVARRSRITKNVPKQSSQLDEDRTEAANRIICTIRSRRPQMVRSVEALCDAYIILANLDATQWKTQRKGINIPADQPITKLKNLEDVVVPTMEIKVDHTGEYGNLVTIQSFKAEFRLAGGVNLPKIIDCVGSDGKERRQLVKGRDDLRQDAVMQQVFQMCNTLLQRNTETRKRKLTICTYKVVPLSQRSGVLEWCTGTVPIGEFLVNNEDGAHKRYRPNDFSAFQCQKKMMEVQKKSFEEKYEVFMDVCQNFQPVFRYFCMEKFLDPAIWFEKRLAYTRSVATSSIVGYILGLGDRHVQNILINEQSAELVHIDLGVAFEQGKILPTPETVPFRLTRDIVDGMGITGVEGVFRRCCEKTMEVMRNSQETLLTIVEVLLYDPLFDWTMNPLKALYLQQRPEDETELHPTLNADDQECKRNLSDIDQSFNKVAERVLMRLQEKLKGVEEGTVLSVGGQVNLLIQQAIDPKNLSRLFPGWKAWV
Assay: ATM ELISA for p53 S15 phosphorylation
Conditions: 0.75 nM ATM, 25 nM p53, 10 μM ATP, 30 min at 20° C.; read-out: ATM BIO IC50
measured_quantity: IC50 (nM)

[[record]]
line_notation = "COc1cccc(C[C@H]2CCCCCN2c2nc(N3CCOCC3)cc(=O)[nH]2)c1"
unit_abbreviation = "nM"
endpoint_value = 1.9

[[record]]
line_notation = "O=c1cc(N2CCOCC2)nc(N2CCC[C@@H]2Cc2ccc(F)cc2)[nH]1"
unit_abbreviation = "nM"
endpoint_value = 9.7


a. O=c1cc(N2CCOCC2)cc(N2CCCCC[C@@H]2Cc2ccsc2)[nH]1
b. O=c1cc(N2CCOCC2)cc(N2CCC[C@@H]2Cc2cccc(OC3CCOCC3)c2)[nH]1
Prompt: Select the item whose IC50 value is smaller, choosing between a and b . Bench note: the answer is the label of the chosen record.
Response: a

====

Molecular target: cellular ATM activity (Homo sapiens (Human), UniProt Q13315)
Sequence (Q13315 whole entry): as above
Experiment: Inhibition of cellular ATM activity: etoposide-stimulated KAP1 phosphorylation in U20S cells
Conditions: 100 μM etoposide, 60 min, read-out: ATM CELL IC50
pIC50: −log10 of the molar value.
measured_quantity: pIC50

Sample records with pIC50:
[[record]]
molecule = "C[C@@H]1CN(c2cc(=O)[nH]c(N3CCC(F)(F)[C@@H]3Cc3ccccc3)n2)CCO1"
endpoint_value = 5.55

[[record]]
molecule = "O=c1cc(N2CCOCC2)cc(N2C[C@@H]3CC[C@@H](C3)[C@@H]2Cc2ccccc2)[nH]1"
endpoint_value = 6.24

[[record]]
molecule = "COC[C@@H](C)Oc1cccc(C[C@H]2CCCN2c2cc(N3CCOCC3)cc(=O)[nH]2)c1"
endpoint_value = 5.93


A. C[C@@H]1CN(c2cc(=O)[nH]c(N3CC[C@@H](F)[C@@H]3Cc3ccccc3)n2)CCO1
B. Cc1cc(C[C@H]2CCCN2c2nc(N3CCOCC3)cc(=O)[nH]2)cc(C)n1
C. CC(c1ccccc1)C1CCCN1c1nc(N2CCOCC2)cc(=O)[nH]1 (racemic)
D. O=c1cc(N2CCOCC2)cc(N2C[C@H]3CC[C@H](C3)[C@@H]2Cc2ccccc2)[nH]1
Prompt: Put the items in order so that reported pIC50 rises from first to last. Please respond with the labels ordered as the question requires.
Response: C, B, A, D

A. COc1cc(F)ccc1C[C@H]1CCCCCN1c1cc(N2CCOCC2)cc(=O)[nH]1
B. COc1ccccc1C[C@H]1[C@H](C)CCN1c1cc(N2CCOCC2)cc(=O)[nH]1
C. Cc1ccccc1C[C@H]1CCCCCN1c1nc(N2CCOCC2)cc(=O)[nH]1
D. CC1CCC[C@H](Cc2ccccc2)N(c2nc(N3CCOCC3)cc(=O)[nH]2)C1 (single isomer, unassigned) [Example 247]
Prompt: Put the items in order so that reported pIC50 rises from first to last. Please respond with the labels ordered as the question requires.
Response: A, C, B, D

1. COc1ccccc1C[C@H]1CCCCN1c1nc(N2CCOCC2)cc(=O)[nH]1
2. O=c1cc(N2CCOCC2)cc(N2CC(F)(F)C[C@@H]2Cc2ccccc2)[nH]1
Prompt: Of 1 and 2 , which one carries the higher reported pIC50? Bench note: the answer is the label of the chosen record.
Response: 1
(1: 6.15, 2: 5.65)

A. O=c1cc(N2CCOCC2)nc(N2CCCCC[C@@H]2Cc2cccc(F)c2F)[nH]1
B. C[C@@H]1CCCN(c2cc(N3CCOCC3)cc(=O)[nH]2)[C@@H](Cc2ccccc2)C1
Prompt: Of A and B , which one carries the higher reported pIC50? Bench note: the answer is the label of the chosen record.
Response: A

====

Biological target: Recombinant, full length human FLAG-tagged ATM (Homo sapiens (Human))
Assay: ATM ELISA for p53 S15 phosphorylation
Details: 0.75 nM ATM, 25 nM p53, 10 μM ATP, 30 min at 20° C.; read-out: ATM BIO IC50
measured_quantity: IC50 (nM)

[[record]]
compound = "COc1cccc(C[C@H]2CCCCCN2c2cc(N3CCOCC3)cc(=O)[nH]2)c1 [Example 23]"
endpoint_value = 6.5

[[record]]
compound = "O=c1cc(N2CCOCC2)cc(N2CCCCC[C@@H]2Cc2ccc(F)cc2)[nH]1 [Example 52]"
endpoint_value = 35.3

[[record]]
compound = "COc1ccc(F)cc1C[C@H]1CCCCCN1c1cc(N2CCOCC2)cc(=O)[nH]1 [Example 86]"
endpoint_value = 65


1. Cc1cc(C[C@H]2CCCN2c2nc(N3CCOCC3)cc(=O)[nH]2)cc(C)n1 [Example 188]
2. O=c1cc(N2CCOCC2)cc(N2CCCCC[C@@H]2Cc2ccccn2)[nH]1 [Example 33]
3. C[C@H]1CCCN(c2nc(N3CCO[C@H](C)C3)cc(=O)[nH]2)[C@@H](Cc2ccccc2)C1 [Example 312]
Prompt: Put the items in order so that reported IC50 rises from first to last. Please respond with the labels ordered as the question requires.
Response: 1, 3, 2
(1: 28.7 nM, 3: 44.7 nM, 2: 92.4 nM)

I. CC1CCC[C@H](Cc2ccccc2)N(c2nc(N3CCOCC3)cc(=O)[nH]2)C1 (single isomer, unassigned) [Example 247]
II. O=c1cc(N2CCOCC2)cc(N2CC(F)(F)C[C@@H]2Cc2ccccc2)[nH]1 [Example 102]
III. C[C@@H]1CCN(c2nc(N3CCOCC3)cc(=O)[nH]2)[C@H]1Cc1ccccc1 [Example 215]
Prompt: Put the items in order so that reported IC50 rises from first to last. Please respond with the labels ordered as the question requires.
Response: III, I, II

a. O=c1cc(N2CCOCC2)cc(N2CCC[C@@H]2Cc2ccccc2)[nH]1 [Example 1]
b. O=c1cc(N2CCOCC2)nc(N2CCCCC[C@@H]2Cc2ccc(F)cc2)[nH]1 [Example 222]
Prompt: Select the item whose IC50 value is smaller, choosing between a and b . Bench note: the answer is the label of the chosen record.
Response: b

A. C[C@@H]1CN(c2cc(=O)[nH]c(N3CCC(F)(F)[C@@H]3Cc3ccccc3)n2)CCO1 [Example 322]
B. Cc1ccc(C[C@H]2CCCN2c2nc(N3CCOCC3)cc(=O)[nH]2)cc1 [Example 186]
C. O=c1cc(N2CCOCC2)nc(N2CC[C@@H](F)[C@@H]2Cc2ccccc2)[nH]1 [Example 259]
D. O=c1cc(N2CCOCC2)cc(N2C[C@@H]3CCC[C@@H]3[C@@H]2Cc2ccccc2)[nH]1 [Example 124]
Prompt: // ranking: key=IC50, reverse=True Please respond with the labels ordered as the question requires.
Response: A, B, D, C
(A: 33.2 nM, B: 14.4 nM, D: 3.3 nM, C: 1.7 nM)

P. COc1ccccc1C[C@H]1CCCCN1c1nc(N2CCOCC2)cc(=O)[nH]1 [Example 197]
Q. COc1ccccc1C[C@H]1[C@H](C)CCN1c1cc(N2CCOCC2)cc(=O)[nH]1 [Example 47]
Prompt: Select the item whose IC50 value is smaller, choosing between P and Q . Bench note: the answer is the label of the chosen record.
Response: Q
(Q: 8.3 nM, P: 14.9 nM)
